# MEASUREMENT PROTOCOL: Metabolic stability in mouse plasma assessed as compound remaining at 3.7 MBq after 30 mins
# Format: ADME, cell-free
# EXPERIMENTAL PARAMETERS: read-out: Stability

{"columns": ["SMI", "remaining at 0.5 h / %"],
 "data": [
  ["CCOc1cc2ncc(C#N)c(Nc3ccc(F)c(Cl)c3)c2cc1NC(=O)/C=C/CNCc1cn(CCF)nn1", 62.8]
]}

====

# MEASURED ON: UniProt P00533
# Sequence (P00533 whole entry): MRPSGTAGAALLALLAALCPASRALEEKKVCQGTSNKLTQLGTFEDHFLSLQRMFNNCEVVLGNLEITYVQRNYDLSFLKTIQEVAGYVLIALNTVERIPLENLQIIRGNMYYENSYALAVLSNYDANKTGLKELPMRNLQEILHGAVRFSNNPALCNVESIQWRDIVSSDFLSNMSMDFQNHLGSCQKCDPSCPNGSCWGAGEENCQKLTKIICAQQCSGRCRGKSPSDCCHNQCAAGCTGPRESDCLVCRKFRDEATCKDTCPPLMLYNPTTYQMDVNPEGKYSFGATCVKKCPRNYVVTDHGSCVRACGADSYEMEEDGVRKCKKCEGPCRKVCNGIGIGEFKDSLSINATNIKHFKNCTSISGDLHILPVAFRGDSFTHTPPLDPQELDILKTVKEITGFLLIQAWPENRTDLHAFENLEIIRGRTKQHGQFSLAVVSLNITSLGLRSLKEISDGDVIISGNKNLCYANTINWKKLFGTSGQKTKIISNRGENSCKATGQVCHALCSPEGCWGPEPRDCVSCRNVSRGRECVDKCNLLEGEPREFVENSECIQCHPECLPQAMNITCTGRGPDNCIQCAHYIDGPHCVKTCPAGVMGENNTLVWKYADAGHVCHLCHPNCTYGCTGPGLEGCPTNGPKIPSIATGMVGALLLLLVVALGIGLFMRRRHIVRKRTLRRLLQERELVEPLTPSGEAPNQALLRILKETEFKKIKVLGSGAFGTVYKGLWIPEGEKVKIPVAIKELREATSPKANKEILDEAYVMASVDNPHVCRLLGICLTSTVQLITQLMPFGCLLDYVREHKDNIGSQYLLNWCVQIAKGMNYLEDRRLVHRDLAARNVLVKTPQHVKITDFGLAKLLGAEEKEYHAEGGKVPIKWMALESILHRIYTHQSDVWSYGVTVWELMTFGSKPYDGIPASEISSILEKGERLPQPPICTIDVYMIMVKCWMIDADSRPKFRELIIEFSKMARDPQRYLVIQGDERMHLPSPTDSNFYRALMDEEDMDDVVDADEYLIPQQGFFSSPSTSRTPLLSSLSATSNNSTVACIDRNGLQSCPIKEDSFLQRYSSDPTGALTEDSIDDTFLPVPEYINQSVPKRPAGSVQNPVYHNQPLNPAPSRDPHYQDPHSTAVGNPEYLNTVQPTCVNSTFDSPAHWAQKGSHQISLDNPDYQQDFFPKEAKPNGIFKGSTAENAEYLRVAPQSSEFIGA
# MEASUREMENT PROTOCOL: Inhibition of EGFR autophosphorylation in human A431 cells
MEASUREMENT LABEL: IC50

{"columns": ["SMI", "MEASUREMENT LABEL", "RESULT"],
 "data": [
  ["Nc1cc2ncnc(Nc3cccc(Br)c3)c2cc1N", "IC50", "> 1000 nM"]
]}

====

# MEASUREMENT PROTOCOL: Metabolic stability in mouse plasma assessed as compound remaining at 3.7 MBq after 2 mins
# Assay type: ADME, cell-free
# EXPERIMENTAL PARAMETERS: read-out: Stability
MEASUREMENT LABEL: remaining at 2 min (%)

{"columns": ["SMI", "READOUT NUMBER"],
 "data": [
  ["CCOc1cc2ncc(C#N)c(Nc3ccc(F)c(Cl)c3)c2cc1NC(=O)/C=C/CNCc1cn(CCF)nn1", 98.9]
]}

====

# MEASUREMENT PROTOCOL: Metabolic stability in mouse liver assessed as compound remaining at 3.7 MBq after 2 mins
# Type: ADME, tissue-based
# EXPERIMENTAL PARAMETERS: read-out: Stability

{"columns": ["SMI", "remaining at 2 min [%]"],
 "data": [
  ["CCOc1cc2ncc(C#N)c(Nc3ccc(F)c(Cl)c3)c2cc1NC(=O)/C=C/CNCc1cn(CCF)nn1", 95]
]}

====

# MEASUREMENT PROTOCOL: Metabolic stability in mouse plasma assessed as compound remaining at 3.7 MBq after 60 mins
# Format: ADME, cell-free
# EXPERIMENTAL PARAMETERS: read-out: Stability

{"columns": ["SMI", "remaining at 1 h [%]"],
 "data": [
  ["CCOc1cc2ncc(C#N)c(Nc3ccc(F)c(Cl)c3)c2cc1NC(=O)/C=C/CNCc1cn(CCF)nn1", 49.8]
]}

====

# MEASUREMENT PROTOCOL: Metabolic stability in mouse liver assessed as compound remaining at 3.7 MBq after 60 mins
# Type: ADME, tissue-based
# EXPERIMENTAL PARAMETERS: read-out: Stability

{"columns": ["SMI", "SCALE UNIT", "remaining at 1 h"],
 "data": [
  ["CCOc1cc2ncc(C#N)c(Nc3ccc(F)c(Cl)c3)c2cc1NC(=O)/C=C/CNCc1cn(CCF)nn1", "%", 75.5]
]}
